Can you tell me Selectivity Index (CC50/IC50), intracellular amastigote for the items I'm about to list?
Tested on: Leishmania amazonensis intracellular amastigote
Assay: Intracellular amastigote activity (parasite rescue and transformation assay)
Type: cell-based
Settings: macrophage CC50 / amastigote IC50

Some solved cases for reference:
{"SMILES_INPUT": "CN1CCC(NCc2cccc(-c3ccc(S(=O)(=O)NCc4ccccc4)cc3)c2)CC1", "ASSAY_RESULT": ">4.00"}
{"SMILES_INPUT": "COc1cccc(-n2nnnc2S(=O)(=O)Cc2ccccc2)c1", "ASSAY_RESULT": 1.68}
{"SMILES_INPUT": "CCCCCCCCCCCCCCCCOP(=O)([O-])OCC[N+](C)(C)C", "ASSAY_RESULT": 23.14}

# map each compound to its Selectivity Index (CC50/IC50), intracellular amastigote
1. O=C(Nc1ccc(N2CCNCC2)cc1)c1ccn2ncc(-c3cccc(Cl)c3)c2n1
2. CCCn1c(NC(=O)c2ccc3ccccc3n2)nc2ccccc21
3. C[C@H](c1ccc2c(c1)CCCC2)N(C)c1ncc2c(N)nc(N)nc2n1
4. c1ccc(-c2nc(NC3CCCCC3)cc(C3CC3)n2)nc1
5. CN1CCN(CCCOc2ncc(Nc3ncc(-c4ccc(C(F)(F)F)c(F)c4)nc3C(N)=O)cn2)CC1

1: 1.05; 2: >1.17; 3: >8.00; 4: >7.52; 5: 1.17

* * *

Experiment: Cytotoxic activity against murine macrophages (alamarBlue)
Conditions: mouse, J774A.1 murine macrophages
Can you tell me log10 of CC50 at 24 h for the items I'm about to list?
Short version: log10 scale, CC50 at 24 h, µM.

{"SMILES_INPUT": "CN1CCN(CCCOc2ncc(Nc3ncc(-c4ccc(C(F)(F)F)c(F)c4)nc3C(N)=O)cn2)CC1", "log10 of CC50 at 24 h": 0.90}
{"SMILES_INPUT": "Cn1c(=O)c2c(S(C)(=O)=O)snc2n(C)c1=O", "log10 of CC50 at 24 h": 0.63}

# map each molecule to its log10 of CC50 at 24 h
1. CCCCCCCCCCCCCCCCOP(=O)([O-])OCC[N+](C)(C)C
2. O=C(Nc1ccc(N2CCNCC2)cc1)c1ccn2ncc(-c3cccc(Cl)c3)c2n1
3. COc1cccc(-n2nnnc2S(=O)(=O)Cc2ccccc2)c1

1.86
0.86
0.90

* * *

System: Leishmania amazonensis intracellular amastigote
Test: Intracellular amastigote activity (parasite rescue and transformation assay)
Type: cell-based
Details: Leishmania amazonensis, Macrophage, read-out: Leishmania amazonensis Intracellular Amastigote IC50
REPORTED_PROPERTY: IC50

# value lookup — system Leishmania amazonensis intracellular amastigote, readout IC50, item COc1nc2ccc(Br)cc2cc1[C@@H](c1ccccc1)[C@@](O)(CCN(C)C)c1cccc2ccccc12 [Compound 1, Bedaquiline, reference compound] > 10 µM
